ASSAY REMARKS: in vitro
Type: cell-based
RUN CONDITIONS: human
METRIC NAME: CC50 at 96 h

Ask: Need CC50 at 96 h of "Nc1ccccc1NC(=O)c1ccc(CNC(=O)OCc2cccnc2)cc1" , thanks.
Reply: ≥ 4.75 µM

* * *

ASSAY REMARKS: in vitro
Type: cell-based
RUN CONDITIONS: human
METRIC NAME: CC50 at 4 h

Ask: Which value of CC50 at 4 h has been reported for "Nc1ccccc1NC(=O)c1ccc(CNC(=O)OCc2cccnc2)cc1" in the records?
Reply: ≥ 21.1 µM
